- Tested on: L5178Y cells
- assay-summary: In vitro micronucleus test, flow cytometric (EMA/SYTOX) and microscopy scoring, L5178Y cells
Counter-ions that a name gives are not always drawn.

compound: NC(=O)NO [Hydroxyurea]
MN Induction (≥3-fold): Yes
--
compound: CC[C@]1(O)C[C@@H]2CN(CCc3c([nH]c4ccccc34)[C@@](C(=O)OC)(c3cc4c(cc3OC)N(C)[C@H]3[C@@](O)(C(=O)OC)[C@H](OC(C)=O)[C@]5(CC)C=CCN6CC[C@]43[C@@H]65)C2)C1 [Vinblastine sulfate]
MN Induction (≥3-fold): Yes
--
compound: C[C@@H]1C[C@H]2[C@@H]3CCC4=CC(=O)C=C[C@]4(C)[C@@]3(F)[C@@H](O)C[C@]2(C)[C@@]1(O)C(=O)CO
MN Induction (≥3-fold): No
--
compound: COS(C)(=O)=O [Methyl methanesulfonate]
MN Induction (≥3-fold): Yes

Recorded values, source patent US10000793B2.
